- Measurement Protocol: Clearance in ICR mouse at 1 mg/kg,iv administration measured upto 24 hrs by LC-MS/MS analysis
- Assay type: ADME, organism-based
- Condition Description: in vivo
Measurement Name: clearance (mL/min/kg)
Write down the numeric answer in mL/min/kg and omit the unit.

Q) Name the recorded clearance of the item `COc1cncc(C#Cc2cc(C(=O)Nc3ccc4c(c3)C(F)(F)C[C@@H]4N3CCN(C)CC3)ccc2F)c1` in your answer.
A) 25.7

Q) Name the recorded clearance of the item `CN1CCN([C@H]2CC(F)(F)c3cc(NC(=O)c4ccc(F)c(C#Cc5cncc(N6CCOCC6)c5)c4)ccc32)CC1` in your answer.
A) 51.6

Q) Name the recorded clearance of the item `CN1CCN([C@H]2CC(F)(F)c3cc(NC(=O)c4cccc(C#Cc5cncc(N6CCOCC6)c5)c4)ccc32)CC1` in your answer.
A) 35.5

###

Kindly supply the reported AUC(0-t) at 24 h values for the records listed here.
- Measurement Protocol: AUC (0 to t) in ICR mouse at 10 mg/kg,po administration measured upto 24 hrs by LC-MS/MS analysis
- Assay type: ADME, organism-based
- Condition Description: in vivo
Write down the numeric answer in ng·h/mL and omit the unit.

Q) Name the recorded AUC(0-t) at 24 h of the item `CN1CCN([C@H]2CC(F)(F)c3cc(NC(=O)c4cccc(C#Cc5cncc(N6CCOCC6)c5)c4)ccc32)CC1` in your answer.
A) 2140

Q) Name the recorded AUC(0-t) at 24 h of the item `COc1cncc(C#Cc2cc(C(=O)Nc3ccc4c(c3)C(F)(F)C[C@@H]4N3CCN(C)CC3)ccc2F)c1` in your answer.
A) 3080

Q) Name the recorded AUC(0-t) at 24 h of the item `CN1CCN([C@H]2CC(F)(F)c3cc(NC(=O)c4ccc(F)c(C#Cc5cncc(N6CCOCC6)c5)c4)ccc32)CC1` in your answer.
A) 955

###

Kindly supply the reported half-life values for the records listed here.
- Measurement Protocol: Terminal half life in ICR mouse at 10 mg/kg,po administration measured upto 24 hrs by LC-MS/MS analysis
- Assay type: ADME, organism-based
- Condition Description: in vivo, read-out: beta t1/2 (converted)
Please answer using a numeric value trailed by its unit.

Q) Name the recorded half-life of the item `CN1CCN([C@H]2CC(F)(F)c3cc(NC(=O)c4cccc(C#Cc5cncc(N6CCOCC6)c5)c4)ccc32)CC1` in your answer.
A) 2.43 h

Q) Name the recorded half-life of the item `CN1CCN([C@H]2CC(F)(F)c3cc(NC(=O)c4ccc(F)c(C#Cc5cncc(N6CCOCC6)c5)c4)ccc32)CC1` in your answer.
A) 3 h

Q) Name the recorded half-life of the item `COc1cncc(C#Cc2cc(C(=O)Nc3ccc4c(c3)C(F)(F)C[C@@H]4N3CCN(C)CC3)ccc2F)c1` in your answer.
A) 6.03 h

###

- Measurement Protocol: Volume of distribution in ICR mouse at 1 mg/kg,iv administration measured upto 24 hrs by LC-MS/MS analysis
- Format: ADME, organism-based
- Condition Description: in vivo
Kindly supply the reported Vd values for the records listed here.
Write down the numeric answer in L/kg and omit the unit.

Q) Name the recorded Vd of the item `COc1cncc(C#Cc2cc(C(=O)Nc3ccc4c(c3)C(F)(F)C[C@@H]4N3CCN(C)CC3)ccc2F)c1` in your answer.
A) 12.4

Q) Name the recorded Vd of the item `CN1CCN([C@H]2CC(F)(F)c3cc(NC(=O)c4cccc(C#Cc5cncc(N6CCOCC6)c5)c4)ccc32)CC1` in your answer.
A) 10.2

Q) Name the recorded Vd of the item `CN1CCN([C@H]2CC(F)(F)c3cc(NC(=O)c4ccc(F)c(C#Cc5cncc(N6CCOCC6)c5)c4)ccc32)CC1` in your answer.
A) 9.74

Data origin, for the record: ChEMBL document CHEMBL5537203
